Each entry below lists one item and its recorded Height value.
System: rice
Assay Comment: Low temperature assay on rice seedlings
Assay type: in vivo
Particulars: 0.0001 mg/l, 3 °C, 6 days

Compound	Result Unit	Height
C=C(C(C)C)[C@@H](O)[C@H](O)[C@@H](C)[C@H]1CCC2C3COC(=O)C4C[C@H](O)[C@H](O)C[C@]4(C)C3CC[C@@]21C (stereo partly drawn)	cm	7.1
CC(C)[C@H](C)[C@@H](O)[C@H](O)[C@@H](C)[C@H]1CCC2C3COC(=O)C4C[C@H](O)[C@H](O)C[C@]4(C)C3CC[C@@]21C (stereo partly drawn)	cm	7.2
CC(C)[C@H](C)[C@@H](O)[C@H](O)[C@@H](C)[C@H]1CCC2C3CC(=O)C4C[C@H](O)CC[C@]4(C)C3CC[C@@]21C (stereo partly drawn)	cm	7.1
CC(C)(O)CC[C@@H](O)[C@](C)(O)[C@H]1CC[C@@]2(O)[C@@H]3CC(=O)[C@@H]4C[C@@H](O)[C@@H](O)C[C@]4(C)[C@H]3CC[C@]12C	cm	7.2
CC(C)C[C@@H](O)[C@H](O)[C@@H](C)[C@H]1CCC2C3CC(=O)C4C[C@H](O)[C@H](O)C[C@]4(C)C3CC[C@@]21C (stereo partly drawn)	cm	7.2
CC[C@@H](C(C)C)[C@@H](O)[C@H](O)[C@@H](C)[C@H]1CCC2C3COC(=O)C4C[C@H](O)[C@H](O)C[C@]4(C)C3CC[C@@]21C (stereo partly drawn)	cm	7.2

###

System: rice seed
Assay Comment: Salt tolerance assay: germination of rice seed under high salt environment
Assay type: in vivo
Particulars: sample 0.01 mg/l, salt 300 mg/l
List of Germination rate values.

Compound	Germination rate
CC(C)[C@H](C)[C@@H](O)[C@H](O)[C@@H](C)[C@H]1CCC2C3CC(=O)C4C[C@H](O)CC[C@]4(C)C3CC[C@@]21C (stereo partly shown)	55%
CC(C)[C@H](C)[C@@H](O)[C@H](O)[C@@H](C)[C@H]1CCC2C3COC(=O)C4C[C@H](O)[C@H](O)C[C@]4(C)C3CC[C@@]21C (stereo partly shown)	55%
C=C(C(C)C)[C@@H](O)[C@H](O)[C@@H](C)[C@H]1CCC2C3COC(=O)C4C[C@H](O)[C@H](O)C[C@]4(C)C3CC[C@@]21C (stereo partly shown)	51%
CC[C@@H](C(C)C)[C@@H](O)[C@H](O)[C@@H](C)[C@H]1CCC2C3COC(=O)C4C[C@H](O)[C@H](O)C[C@]4(C)C3CC[C@@]21C (stereo partly shown)	50%

###

Tested on: rice
Assay Comment: Low temperature assay on rice seedlings
Format: in vivo
Particulars: 0.0001 mg/l, 1 °C, 12 days
Entries annotated with measured Area of leaf
Experimental Endpoint: Area of leaf (cm^2)

Molecule	Experimental Endpoint	Value
CC[C@@H](C(C)C)[C@@H](O)[C@H](O)[C@@H](C)[C@H]1CCC2C3COC(=O)C4C[C@H](O)[C@H](O)C[C@]4(C)C3CC[C@@]21C (stereo partly drawn) [BR2]	Area of leaf	13.1
CC(C)[C@H](C)[C@@H](O)[C@H](O)[C@@H](C)[C@H]1CCC2C3CC(=O)C4C[C@H](O)CC[C@]4(C)C3CC[C@@]21C (stereo partly drawn) [BR4]	Area of leaf	13
CC(C)C[C@@H](O)[C@H](O)[C@@H](C)[C@H]1CCC2C3CC(=O)C4C[C@H](O)[C@H](O)C[C@]4(C)C3CC[C@@]21C (stereo partly drawn) [BR5]	Area of leaf	13.1
CC(C)[C@H](C)[C@@H](O)[C@H](O)[C@@H](C)[C@H]1CCC2C3COC(=O)C4C[C@H](O)[C@H](O)C[C@]4(C)C3CC[C@@]21C (stereo partly drawn) [BR1]	Area of leaf	13
CC(C)(O)CC[C@@H](O)[C@](C)(O)[C@H]1CC[C@@]2(O)[C@@H]3CC(=O)[C@@H]4C[C@@H](O)[C@@H](O)C[C@]4(C)[C@H]3CC[C@]12C [BR6]	Area of leaf	13
C=C(C(C)C)[C@@H](O)[C@H](O)[C@@H](C)[C@H]1CCC2C3COC(=O)C4C[C@H](O)[C@H](O)C[C@]4(C)C3CC[C@@]21C (stereo partly drawn) [BR3]	Area of leaf	13.1

###

Test system: rice
Assay Comment: Low temperature assay on rice seedlings
Type: in vivo
Particulars: 0.0001 mg/l, 4 °C, 9 days
Text: According to a low temperature assay, we measured parameters including plant height, number of leaf, area of leaf, number of tiller, weight of root at low temperature to completely determine effects of the natural brassinolide analogues on the resistance to low temperature of a plant. The natural brassinolide analogues, BR1, BR2, BR3, BR4, BR5 and BR6, used herein, were those prepared by the method of Example 1. […]
Item-by-item account of Weight of root
Experimental Endpoint: Weight of root (g)

Compound	Experimental Endpoint	Result Unit	Value
CC[C@@H](C(C)C)[C@@H](O)[C@H](O)[C@@H](C)[C@H]1CCC2C3COC(=O)C4C[C@H](O)[C@H](O)C[C@]4(C)C3CC[C@@]21C (stereo partly drawn)	Weight of root	g	2.9
CC(C)C[C@@H](O)[C@H](O)[C@@H](C)[C@H]1CCC2C3CC(=O)C4C[C@H](O)[C@H](O)C[C@]4(C)C3CC[C@@]21C (stereo partly drawn)	Weight of root	g	2.7
CC(C)[C@H](C)[C@@H](O)[C@H](O)[C@@H](C)[C@H]1CCC2C3COC(=O)C4C[C@H](O)[C@H](O)C[C@]4(C)C3CC[C@@]21C (stereo partly drawn)	Weight of root	g	2.9

###

Height overview
Tested on: rice
Assay Comment: Low temperature assay on rice seedlings
Assay type: in vivo
Particulars: 0.1 mg/l, 4 °C, 9 days

Compound	Height [cm]
CC(C)C[C@@H](O)[C@H](O)[C@@H](C)[C@H]1CCC2C3CC(=O)C4C[C@H](O)[C@H](O)C[C@]4(C)C3CC[C@@]21C (stereo partly drawn)	8
CC(C)[C@H](C)[C@@H](O)[C@H](O)[C@@H](C)[C@H]1CCC2C3CC(=O)C4C[C@H](O)CC[C@]4(C)C3CC[C@@]21C (stereo partly drawn)	7.8
CC[C@@H](C(C)C)[C@@H](O)[C@H](O)[C@@H](C)[C@H]1CCC2C3COC(=O)C4C[C@H](O)[C@H](O)C[C@]4(C)C3CC[C@@]21C (stereo partly drawn)	8
CC(C)(O)CC[C@@H](O)[C@](C)(O)[C@H]1CC[C@@]2(O)[C@@H]3CC(=O)[C@@H]4C[C@@H](O)[C@@H](O)C[C@]4(C)[C@H]3CC[C@]12C	7.5
C=C(C(C)C)[C@@H](O)[C@H](O)[C@@H](C)[C@H]1CCC2C3COC(=O)C4C[C@H](O)[C@H](O)C[C@]4(C)C3CC[C@@]21C (stereo partly drawn)	7.8
CC(C)[C@H](C)[C@@H](O)[C@H](O)[C@@H](C)[C@H]1CCC2C3COC(=O)C4C[C@H](O)[C@H](O)C[C@]4(C)C3CC[C@@]21C (stereo partly drawn)	7.5

###

Tested on: rice
Assay Comment: Low temperature assay on rice seedlings
Format: in vivo
Particulars: 1 mg/l, 5 °C, 3 days

Molecule	Weight of root
CC(C)[C@H](C)[C@@H](O)[C@H](O)[C@@H](C)[C@H]1CCC2C3CC(=O)C4C[C@H](O)CC[C@]4(C)C3CC[C@@]21C (stereo partly drawn) [BR4]	2.9 g
CC(C)[C@H](C)[C@@H](O)[C@H](O)[C@@H](C)[C@H]1CCC2C3COC(=O)C4C[C@H](O)[C@H](O)C[C@]4(C)C3CC[C@@]21C (stereo partly drawn) [BR1]	2.9 g
CC(C)(O)CC[C@@H](O)[C@](C)(O)[C@H]1CC[C@@]2(O)[C@@H]3CC(=O)[C@@H]4C[C@@H](O)[C@@H](O)C[C@]4(C)[C@H]3CC[C@]12C [BR6]	2.9 g

###

Tested on: rice
Assay Comment: Low temperature assay on rice seedlings
Assay type: in vivo
Particulars: 0.0001 mg/l, 2 °C, 12 days
Listing: Height of selected molecules
Experimental Endpoint: Height (cm)

Molecule	Assayed System	Result Unit	Value
CC(C)C[C@@H](O)[C@H](O)[C@@H](C)[C@H]1CCC2C3CC(=O)C4C[C@H](O)[C@H](O)C[C@]4(C)C3CC[C@@]21C (stereo partly drawn)	rice	cm	7.4
CC(C)[C@H](C)[C@@H](O)[C@H](O)[C@@H](C)[C@H]1CCC2C3CC(=O)C4C[C@H](O)CC[C@]4(C)C3CC[C@@]21C (stereo partly drawn)	rice	cm	7.2
C=C(C(C)C)[C@@H](O)[C@H](O)[C@@H](C)[C@H]1CCC2C3COC(=O)C4C[C@H](O)[C@H](O)C[C@]4(C)C3CC[C@@]21C (stereo partly drawn)	rice	cm	7.4
